Source of measurements: paper PMC9130233

- PROCEDURE_TEXT: Toxicokinetics (blood), 14-day inhalation study in Sprague Dawley rats
- Format: in vivo, rat
- EXPERIMENTAL_CONTEXT: both sexes, Sprague-Dawley, rat, blood, inhaled or intranasal, 3.4 mg/kg/day, SD rat blood, inhalation, 3.4 mg/kg/day, Day 14, Mean; read-out: Cmax, mean (SE)
MEASUREMENT_KIND: Cmax (ng/mL)
Write the number in ng/mL without appending the unit.

Please report Cmax for the following compound: CCn1c(C(C)(C)Oc2ccc(F)cc2F)nc2cc(NC(=O)Cc3ccc(S(=O)(=O)CC)cc3)ccc21 [PCCR-1]
215

###

- PROCEDURE_TEXT: Toxicokinetics (blood), 14-day inhalation study in Sprague Dawley rats
- Format: in vivo, rat
- EXPERIMENTAL_CONTEXT: both sexes, Sprague Dawley, rat, blood, inhaled or intranasal, 10.8 mg/kg/day, SD rat blood, inhalation, 10.8 mg/kg/day, Day 1, Mean; read-out: Cmax, mean (SE)
MEASUREMENT_KIND: Cmax

Find the measured Cmax of CCn1c(C(C)(C)Oc2ccc(F)cc2F)nc2cc(NC(=O)Cc3ccc(S(=O)(=O)CC)cc3)ccc21 [PCCR-1] and report it.
457 ng/mL
